Target: Hck (UniProt P08631)
Sequence (P08631 whole entry, looked up): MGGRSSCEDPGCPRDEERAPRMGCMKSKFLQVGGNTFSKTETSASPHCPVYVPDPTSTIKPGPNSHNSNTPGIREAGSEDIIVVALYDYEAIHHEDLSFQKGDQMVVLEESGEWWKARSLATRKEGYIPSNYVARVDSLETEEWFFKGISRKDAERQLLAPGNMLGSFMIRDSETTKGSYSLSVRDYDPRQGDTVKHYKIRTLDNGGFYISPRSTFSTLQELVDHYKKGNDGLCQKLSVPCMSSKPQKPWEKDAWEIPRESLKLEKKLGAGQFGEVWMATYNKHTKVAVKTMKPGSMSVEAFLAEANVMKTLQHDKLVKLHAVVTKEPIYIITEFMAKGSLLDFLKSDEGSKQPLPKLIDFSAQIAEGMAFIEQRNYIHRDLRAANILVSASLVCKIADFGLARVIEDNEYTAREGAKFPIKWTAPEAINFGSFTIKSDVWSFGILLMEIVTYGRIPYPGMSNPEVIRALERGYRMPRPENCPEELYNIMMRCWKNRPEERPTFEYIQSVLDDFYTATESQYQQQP
Assay: phosphorylation enrichment, bacterial display (enrichment ratio); higher = better substrate or ligand; peptides without Tyr show the background;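 also: 11-residue human phosphosite peptides and single-mutation variants displayed on the E. coli surface, counted by deep sequencing, each peptide's frequency after selection divided by its frequency in the unselected input library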;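 also: frequency after pTyr selection over input frequency; kinase dosed for 20-30% of maximal phosphorylation in three min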
Below is a list of entries, each paired with its recorded phosphorylation enrichment value.
parameter: phosphorylation enrichment

seq="VSRGRYRPEEC [B4GALT4_Y113_Q116E]" assay_value=0.522
seq="RALCHYYKLNI [ETV6_Y401_R399C]" assay_value=1.59
seq="EPYKVYRIVPE [IRF8_Y110]" assay_value=0.574

----------
Below is a list of entries, each paired with its recorded phosphorylation enrichment value.
Biological target: Jak2 (UniProt O60674)
Sequence (O60674 whole entry, looked up): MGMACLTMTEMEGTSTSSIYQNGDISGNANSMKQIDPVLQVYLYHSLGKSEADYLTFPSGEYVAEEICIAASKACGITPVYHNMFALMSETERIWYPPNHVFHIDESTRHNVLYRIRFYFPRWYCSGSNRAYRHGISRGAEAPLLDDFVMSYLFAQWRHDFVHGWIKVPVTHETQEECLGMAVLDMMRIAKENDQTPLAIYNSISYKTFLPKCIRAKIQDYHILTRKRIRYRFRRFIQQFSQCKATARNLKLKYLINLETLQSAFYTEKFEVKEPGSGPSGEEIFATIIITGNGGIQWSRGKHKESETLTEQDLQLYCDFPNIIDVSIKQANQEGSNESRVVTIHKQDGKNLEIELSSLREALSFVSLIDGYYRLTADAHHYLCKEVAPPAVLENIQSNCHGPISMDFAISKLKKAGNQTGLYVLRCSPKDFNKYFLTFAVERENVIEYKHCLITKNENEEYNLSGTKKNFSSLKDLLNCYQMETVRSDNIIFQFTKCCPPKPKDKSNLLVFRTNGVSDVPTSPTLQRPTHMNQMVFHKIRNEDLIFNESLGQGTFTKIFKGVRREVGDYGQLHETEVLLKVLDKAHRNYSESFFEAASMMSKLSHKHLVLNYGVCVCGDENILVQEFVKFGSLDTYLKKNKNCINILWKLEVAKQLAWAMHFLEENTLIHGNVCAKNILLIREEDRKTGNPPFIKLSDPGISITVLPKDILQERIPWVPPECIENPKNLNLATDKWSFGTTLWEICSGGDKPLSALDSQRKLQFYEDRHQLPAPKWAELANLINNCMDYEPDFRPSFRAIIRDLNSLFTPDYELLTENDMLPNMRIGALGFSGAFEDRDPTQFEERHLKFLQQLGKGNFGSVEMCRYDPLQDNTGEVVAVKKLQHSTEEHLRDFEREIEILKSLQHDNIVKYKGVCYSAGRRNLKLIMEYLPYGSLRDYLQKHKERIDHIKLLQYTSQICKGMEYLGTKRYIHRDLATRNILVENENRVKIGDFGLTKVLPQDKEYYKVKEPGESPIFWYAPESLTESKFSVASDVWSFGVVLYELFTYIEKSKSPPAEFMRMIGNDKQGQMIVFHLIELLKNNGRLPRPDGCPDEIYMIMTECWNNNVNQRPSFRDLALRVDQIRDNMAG
Experiment: phosphorylation enrichment, bacterial display (enrichment ratio); higher = better substrate or ligand; peptides without Tyr show the background
parameter: phosphorylation enrichment

seq="EFISESCGEII [EZH2_Y641_Y641S]" assay_value=1.04
seq="LYSDHYSPSGR [TMPRSS12_Y23]" assay_value=1.41
seq="SAEEDYKADAK [KCNT1_Y876_M877K]" assay_value=1.07
